# TARGET_OR_SYSTEM: Vasopressin V1a receptor (Homo sapiens, UniProt P37288)
# Sequence (P37288 whole entry): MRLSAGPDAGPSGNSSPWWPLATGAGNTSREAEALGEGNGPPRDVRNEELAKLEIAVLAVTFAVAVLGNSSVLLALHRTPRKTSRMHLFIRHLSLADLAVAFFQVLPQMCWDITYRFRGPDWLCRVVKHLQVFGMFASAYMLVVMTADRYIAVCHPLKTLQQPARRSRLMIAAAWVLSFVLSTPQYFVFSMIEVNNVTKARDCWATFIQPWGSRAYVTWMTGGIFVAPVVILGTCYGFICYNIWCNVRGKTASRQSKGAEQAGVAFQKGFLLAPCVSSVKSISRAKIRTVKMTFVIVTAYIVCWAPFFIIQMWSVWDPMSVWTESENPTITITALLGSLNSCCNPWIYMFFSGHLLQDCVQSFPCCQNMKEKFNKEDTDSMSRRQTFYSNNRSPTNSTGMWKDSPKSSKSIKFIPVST
# PROCEDURE_TEXT: Displacement of [3H]-AVP from human V1A receptor expressed in CHO cell membranes by radioligand binding assay
Assign pKi to each entry below.
Give bare numbers, as −log10 of the molar value.

Below: 3 molecules and their reported pKi.
- MOLECULE: "CN(C)c1ccc(C(=O)N2CCCCc3ccccc32)cc1"
  pKi: 7.09
- MOLECULE: "Cc1ccn(-c2ccc(C(=O)N3CCCCc4ccccc43)cc2)n1"
  pKi: 7.47
- MOLECULE: "O=C(c1ccc(-c2cccnc2)cc1)N1CCCCc2ccccc21"
  pKi: 7.17

Items follow; give pKi for each.
1. CC(=O)Nc1ccc(C(=O)N2CCCCc3ccccc32)cc1
2. Nc1ccc(C(=O)N2CCCCc3ccccc32)cc1
3. O=C(c1ccc(-c2ncccn2)cc1)N1CCCCc2ccccc21
4. CCCc1ccc(C(=O)N2CCCCc3ccccc32)cc1
5. Cc1ccn(-c2ccc(C(=O)N3CCCC(O)c4ccccc43)cc2)n1 (centres undefined)
6. CCCCc1ccc(C(=O)N2CCCCc3ccccc32)cc1

Response line:
[5.97, 6.13, 6.24, 7.20, 6.79, 7.55]
